Test: Oral pharmacokinetics in dog
Format: in vivo
Details: in vivo; oral, Dog, 10 mg/kg
Readout Name: Cmax (ng/mL)
Report only the number, with the unit ng/mL understood.

Documented Cmax of `CC[C@H]1OC(=O)[C@H](C)C(=O)[C@H](C)[C@@H](O[C@@H]2O[C@H](C)C[C@H](N(C)C)[C@H]2O)[C@@]2(C)C[C@@H](C)/C(=N\C(C)=O)[C@H](C)[C@@H](OC/C(=N\OCc3ccc(-c4ccno4)nc3)CO2)[C@]1(C)O` : 5040

----------
Assay: Rat PK of amino acid prodrug after IV/PO administration
Type: in vivo
Conditions: plasma, 10 mg/kg IV, prodrug itself measured
Readout Name: Vd (L/kg)
Answer in L/kg, number only, no unit symbol.

The value of Vd measured for the molecule CCC(=O)/N=C1\[C@H](C)C[C@@]2(C)OC/C(=N/OCc3ccc(-c4nc(NC(=O)[C@@H](N)CC(C)C)cs4)cn3)CO[C@H]([C@H]1C)[C@](C)(O)[C@@H](CC)OC(=O)[C@@](C)(F)C(=O)[C@H](C)[C@H]2O[C@@H]1O[C@H](C)C[C@H](N(C)C)[C@H]1O [Compound 6] turned out to be 13.3

----------
Experiment: Oral pharmacokinetics in dog
Format: in vivo
Settings: in vivo; oral, Dog, 10 mg/kg; read-out: AUC0-24
Readout Name: AUC(0-t) (ng·h/mL)
Give the number; ng·h/mL is assumed, so skip it.

`CC[C@H]1OC(=O)[C@H](C)C(=O)[C@H](C)[C@@H](O[C@@H]2O[C@H](C)C[C@H](N(C)C)[C@H]2O)[C@@]2(C)C[C@@H](C)/C(=N\C(C)=O)[C@H](C)[C@@H](OC/C(=N\OCc3ccc(-c4ccno4)nc3)CO2)[C@]1(C)O` has a reported AUC(0-t) of 84400

----------
Test system: H influenzae 33929
Readout Name: MIC (µg/mL)
Answer with a number only, understood to be in µg/mL.

Field: example entries. Status: answers known.
[
  {
    "Compound": "CCC(=O)/N=C1\\[C@H](C)C[C@@]2(C)OC/C(=N/OCc3ccc(-c4nc(N)cs4)cn3)CO[C@H]([C@H]1C)[C@](C)(O)[C@@H](CC)OC(=O)[C@@](C)(F)C(=O)[C@H](C)[C@H]2O[C@@H]1O[C@H](C)C[C@H](N(C)C)[C@H]1O [Compound 1]",
    "Assay System": "H influenzae 33929",
    "MIC (µg/mL)": 4
  },
  {
    "Compound": "CCC(=O)/N=C1\\[C@H](C)C[C@@]2(C)OC/C(=N/OCc3csc(-c4cccc(N)n4)n3)CO[C@H]([C@H]1C)[C@](C)(O)[C@@H](CC)OC(=O)[C@@](C)(F)C(=O)[C@H](C)[C@H]2O[C@@H]1O[C@H](C)C[C@H](N(C)C)[C@H]1O [Compound 3]",
    "Assay System": "H influenzae 33929",
    "MIC (µg/mL)": 4
  }
]

MIC reported for this compound CC[C@H]1OC(=O)[C@H](C)C(=O)[C@H](C)[C@@H](O[C@@H]2O[C@H](C)C[C@H](N(C)C)[C@H]2O)[C@@]2(C)C[C@@H](C)C(=O)[C@H](C)[C@@H](OC/C(=N\OCc3ccc(-c4nc(N)ns4)cn3)CO2)[C@]1(C)O [Compound 2] : 2

What the record says about CC[C@H]1OC(=O)[C@H](C)C(=O)[C@H](C)[C@@H](O[C@@H]2O[C@H](C)C[C@H](N(C)C)[C@H]2O)[C@@]2(C)C[C@@H](C)/C(=N\C(C)=O)[C@H](C)[C@@H](OC/C(=N\OCc3ccc(-c4ccno4)nc3)CO2)[C@]1(C)O [Compound 4] : MIC is 4
